- experimentalTarget: AR (gene 367) (UniProt P10275)
- Sequence (P10275 whole entry, looked up): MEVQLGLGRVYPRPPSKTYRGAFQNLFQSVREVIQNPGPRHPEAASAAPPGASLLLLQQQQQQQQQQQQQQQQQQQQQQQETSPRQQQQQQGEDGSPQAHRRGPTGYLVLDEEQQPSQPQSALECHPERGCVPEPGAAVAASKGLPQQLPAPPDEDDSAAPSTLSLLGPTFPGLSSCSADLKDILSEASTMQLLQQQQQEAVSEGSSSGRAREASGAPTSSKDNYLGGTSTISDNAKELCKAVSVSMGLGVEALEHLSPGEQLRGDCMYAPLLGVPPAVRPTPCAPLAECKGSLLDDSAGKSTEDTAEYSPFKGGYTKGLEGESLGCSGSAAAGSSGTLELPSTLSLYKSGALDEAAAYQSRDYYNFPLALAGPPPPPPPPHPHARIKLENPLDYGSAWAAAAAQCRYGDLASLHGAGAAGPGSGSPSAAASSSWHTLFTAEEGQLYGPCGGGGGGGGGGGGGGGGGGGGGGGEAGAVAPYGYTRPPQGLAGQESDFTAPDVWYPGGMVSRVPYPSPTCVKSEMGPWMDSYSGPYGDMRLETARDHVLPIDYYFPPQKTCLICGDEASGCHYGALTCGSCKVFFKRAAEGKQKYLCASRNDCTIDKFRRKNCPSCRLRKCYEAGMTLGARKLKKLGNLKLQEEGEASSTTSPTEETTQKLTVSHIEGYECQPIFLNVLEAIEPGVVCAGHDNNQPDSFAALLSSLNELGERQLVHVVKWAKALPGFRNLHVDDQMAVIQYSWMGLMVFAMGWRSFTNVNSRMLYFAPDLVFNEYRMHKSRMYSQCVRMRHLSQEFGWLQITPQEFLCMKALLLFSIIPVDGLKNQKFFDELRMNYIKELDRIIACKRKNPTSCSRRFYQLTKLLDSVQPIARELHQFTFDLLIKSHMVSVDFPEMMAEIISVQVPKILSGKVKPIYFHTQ
- assayExplanation: ACEA_AR_antagonist_80hr: ACEA Biosciences xCELLigence Real-Time Cell Analysis on Androgen Receptor Antagonism for Proliferation (AID 2283787);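 further: 22Rv1 human prostate cancer cells with growth followed by electrical impedance; hits lower the impedance growth signal relative to DMSO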
Results filed as inconclusive are left out. Activity calls are given as the source filed them. How the source made its calls: active means hit-call score of the fitted dose curve at least 0.9, where 1 is the maximum; inconclusive means response in the unintended direction; inactive means score below 0.9.
Use one of these outcomes when replying: true for active, false for inactive

Data request: Record lookup: outcome of this test for CCOC(=O)C(C)Oc1ccc(Oc2nc3ccc(Cl)cc3o2)cc1 (centres undefined) ?
Data returned: true

Data request: Record lookup: outcome of this test for CCCN(CCC)C(=O)SCC ?
Data returned: false

Data request: Record lookup: outcome of this test for c1ccc2[nH]c(-c3cscn3)nc2c1 ?
Data returned: true

Data request: Record lookup: outcome of this test for CN(C)C(=O)Nc1ccc(Cl)c(Cl)c1 ?
Data returned: true

Data request: Record lookup: outcome of this test for CC(C)(c1ccc(O)cc1)c1ccc(O)cc1 ?
Data returned: true

Data request: Record lookup: outcome of this test for CCCOC(=O)c1ccc(C(=O)OCCC)nc1 ?
Data returned: false

Data request: Record lookup: outcome of this test for C[C@]12CC[C@@H]3c4ccc(O)cc4C[C@@H](CCCCCCCCCS(=O)CCCC(F)(F)C(F)(F)F)[C@H]3[C@@H]1CC[C@@H]2O (some centres undefined) ?
Data returned: true

Data request: Record lookup: outcome of this test for O=C(c1ccc(O)cc1O)c1ccc(O)cc1O ?
Data returned: true

Data request: Record lookup: outcome of this test for CSC(=O)c1cccc2nnsc12 ?
Data returned: false

----------
Would you mind telling me the reported AC50 of each entry?
- Read-out: solute carrier (SLC10A1), SLC10A1 (gene 6554)
- assayExplanation: LTEA_HepaRG_SLC10A1: Life Technologies and Expression Analysis (LTEA) Assay for solute carrier (SLC10A1) using HepaRG (AID 2283657)
- measurementContext: mRNA level, 48 h; actives raise or lower the signal
Activity calls are given as the source filed them. How the source made its calls: active means hit-call score of the fitted dose curve at least 0.9, where 1 is the maximum; inactive means score below 0.9.

Data request: Give me measured AC50, please, for this molecule: CCCCOCCOCCOCc1cc2c(cc1CCC)OCO2
Data returned: 67.7 µM (active)

Data request: Give me measured AC50, please, for this molecule: S=C([S-])NCCNC(=S)[S-].[Mn+2]
Data returned: 9.93 µM (active)

Data request: Give me measured AC50, please, for this molecule: S=C(S)NCCNC(=S)S.[Mn+2].[S-]C([S-])=NCCN=C([S-])[S-].[Zn+2]
Data returned: 1.74 µM (active)

----------
- Read-out: Macrophage colony-stimulating factor (MCSF), CSF1 (gene 1435)
- assayExplanation: BSK_CASM3C_MCSF: BioMAP Diversity Plus: CASM3C Assay for Macrophage colony-stimulating factor (MCSF) Biomarker Activity (AID 2283044);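 further: M-CSF protein amount quantified by ELISA after 24 h exposure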
- measurementContext: primary human coronary artery smooth muscle cells; actives raise or lower the signal
Calls of active or inactive are those of the source. How the source made its calls: active means hit-call score of the fitted dose curve at least 0.9, where 1 is the maximum; inactive means score below 0.9.
Use one of these outcomes when replying: active, inactive

Data request: Record lookup: outcome of this test for c1ccc(Nc2ccccc2)cc1 ?
Data returned: inactive

Data request: Record lookup: outcome of this test for C#CCOC(=O)[C@@H](C)Oc1ccc(Oc2ncc(Cl)cc2F)cc1 ?
Data returned: inactive

Data request: Record lookup: outcome of this test for CCCCC(CC)COC(=O)c1ccccc1C(=O)O (centres undefined) ?
Data returned: inactive

Data request: Record lookup: outcome of this test for CCCCCOC(=O)COc1cc(N2C(=O)C3=C(CCCC3)C2=O)c(F)cc1Cl ?
Data returned: active

Data request: Record lookup: outcome of this test for COC(=O)c1c(Cl)nn(C)c1S(=O)(=O)NC(=O)Nc1nc(OC)cc(OC)n1 ?
Data returned: inactive

Data request: Record lookup: outcome of this test for O=C(c1ccc(O)cc1O)c1ccc(O)cc1O ?
Data returned: inactive

Data request: Record lookup: outcome of this test for CCC(C)OC(=O)N1CCCCC1CCO (centres undefined) ?
Data returned: inactive

Data request: Record lookup: outcome of this test for CCN(Cc1c(F)cccc1Cl)c1c([N+](=O)[O-])cc(C(F)(F)F)cc1[N+](=O)[O-] ?
Data returned: inactive

Data request: Record lookup: outcome of this test for COc1nc(C)nc(NC(=O)NS(=O)(=O)c2ccccc2OCCCl)n1 ?
Data returned: inactive

Data request: Record lookup: outcome of this test for CCOC(=O)C(C)Oc1ccc(Oc2nc3ccc(Cl)cc3o2)cc1 (centres undefined) ?
Data returned: inactive

Data request: Record lookup: outcome of this test for C=CCOC(Cn1ccnc1)c1ccc(Cl)cc1Cl (centres undefined) ?
Data returned: inactive

Data request: Record lookup: outcome of this test for O=C(O)C1(C(=O)Nc2ccc(Cl)cc2Cl)CC1 ?
Data returned: inactive

Data request: Record lookup: outcome of this test for CC1(C)C(C=C(Cl)Cl)C1C(=O)OCc1cccc(Oc2ccccc2)c1 (centres undefined) ?
Data returned: inactive

Data request: Record lookup: outcome of this test for COC(=O)c1ccc(I)cc1S(=O)(=O)NC(=O)Nc1nc(C)nc(OC)n1 ?
Data returned: inactive

Data request: Record lookup: outcome of this test for CCCN(CCC)c1c([N+](=O)[O-])cc(C(F)(F)F)c(N)c1[N+](=O)[O-] ?
Data returned: inactive

Data request: Record lookup: outcome of this test for CCCCC(CC)CN1C(=O)C2C3C=CC(C3)C2C1=O (centres undefined) ?
Data returned: inactive

Data request: Record lookup: outcome of this test for CCSC(=O)N(CC(C)C)CC(C)C ?
Data returned: inactive

Data request: Record lookup: outcome of this test for CCOC(=O)NCCOc1ccc(Oc2ccccc2)cc1 ?
Data returned: inactive

Data request: Record lookup: outcome of this test for CC(C)(C)[C@@H](O)[C@@H](Cc1ccc(Cl)cc1)n1cncn1 ?
Data returned: inactive

Data request: Record lookup: outcome of this test for CCCOC(=O)c1ccc(C(=O)OCCC)nc1 ?
Data returned: inactive

Data request: Record lookup: outcome of this test for COc1c(Cl)ccc(Cl)c1C(=O)O ?
Data returned: inactive

Data request: Record lookup: outcome of this test for O=C(c1ccccc1)C1CCCCC1 ?
Data returned: inactive

Data request: Record lookup: outcome of this test for COC(=O)c1ccccc1S(=O)(=O)NC(=O)Nc1nc(OC(F)F)cc(OC(F)F)n1 ?
Data returned: inactive

Data request: Record lookup: outcome of this test for OB(O)O ?
Data returned: inactive
